I'd appreciate it if you could supply inhibition at 10 µM values for the items below.
molecular target: NA-uptake (Rattus norvegicus); test: biochemical; settings: read-out: NA-uptake [10 μM], % inhibition
Sequence (Q63380 1-617): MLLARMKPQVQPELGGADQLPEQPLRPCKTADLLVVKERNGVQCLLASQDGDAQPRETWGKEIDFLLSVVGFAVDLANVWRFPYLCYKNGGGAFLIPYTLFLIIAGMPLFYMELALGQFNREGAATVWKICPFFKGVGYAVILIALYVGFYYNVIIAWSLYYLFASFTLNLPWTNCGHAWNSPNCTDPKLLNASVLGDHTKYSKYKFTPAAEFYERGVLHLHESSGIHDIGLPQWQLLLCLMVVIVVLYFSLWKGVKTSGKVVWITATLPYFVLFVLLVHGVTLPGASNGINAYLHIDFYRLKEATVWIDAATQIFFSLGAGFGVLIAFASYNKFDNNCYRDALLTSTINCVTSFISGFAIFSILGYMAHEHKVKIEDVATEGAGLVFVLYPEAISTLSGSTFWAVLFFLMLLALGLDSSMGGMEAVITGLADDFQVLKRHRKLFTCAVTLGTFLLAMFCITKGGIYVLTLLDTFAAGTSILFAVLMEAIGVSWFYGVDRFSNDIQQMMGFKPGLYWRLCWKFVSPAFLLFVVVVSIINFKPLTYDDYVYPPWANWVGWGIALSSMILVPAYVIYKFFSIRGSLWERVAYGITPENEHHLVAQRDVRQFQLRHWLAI
Number only, in %; omit the unit.

Input CN(C)C1(Cc2ccccc2)CCC(NC(=O)CCCC(=O)N2CCN(C3CCCCCC3)CC2)CC1 (centres unmarked) . Output inhibition at 10 µM: 86

Query COc1ccc(NC(=O)CCC(=O)NC2CCC(Cc3ccc(Cl)cc3)(N(C)C)CC2)cc1 (centres unmarked) yields inhibition at 10 µM of 100

response.value for Cc1cccc(CC2(N(C)C)CCC(NC(=O)CCC(=O)N3CCc4[nH]c5ccc(F)cc5c4C3)CC2)c1 (centres unmarked) (field: inhibition at 10 µM) = 98

The value of inhibition at 10 µM measured for the molecule Cc1ccc(CC2(N(C)C)CCC(NC(=O)CCC(=O)NCC3CCCO3)CC2)cc1 (centres unmarked) turned out to be 77

For CCC(C)C(NC(=O)CCC(=O)NC1CCC(Cc2cccc(C)c2)(N(C)C)CC1)C(=O)OC(C)(C)C (centres unmarked) the molecule record lists inhibition at 10 µM as 105

Entry CC(=O)c1ccc(N2CCN(C(=O)CCC(=O)NC3CCC(Cc4ccc(C)cc4)(N(C)C)CC3)CC2)cc1 (centres unmarked) ; inhibition at 10 µM = 92

Query COc1cccc(N2CCN(C(=O)CCCC(=O)NC3CCC(Cc4ccccc4)(N(C)C)CC3)CC2)c1 (centres unmarked) yields inhibition at 10 µM of 101

inhibition at 10 µM recorded for this molecule, CN(C)C1(Cc2cccc(Cl)c2)CCC(NC(=O)CCC(=O)NCCc2ccccn2)CC1 (centres unmarked) , is 95
